# run_description: tolerability in mice
# study_conditions: mouse, in vivo, iv
measurement_type: MTD at 672 h (mg/kg)
The response must be a number in mg/kg with no trailing unit.

QUERY: Give the measured MTD at 672 h of CC1=C2C(=O)C(C)(C)C=C2C(=O)[C@](C)(O)C12CC2 [Dehydroilludin M] .
RESULT: 1

---

# run_description: dosing/tolerability in B6D2F1 mice
# Assay type: in vivo
# study_conditions: mouse, in vivo; daily×5, B6D2F1 mice
measurement_type: MTD (mg/kg)
The response must be a number in mg/kg with no trailing unit.

QUERY: Give the measured MTD of CC1=C(CO)C2=C(C)C3(CC3)[C@@](C)(O)C(=O)C2=C1 [6-hydroxymethylacylfulvene] .
RESULT: 7.5

---

# run_description: tolerability in nude mice (MX-1 study)
# Assay type: in vivo
# study_conditions: mouse, in vivo, ip; i.p. daily×5, nude mice
measurement_type: MTD (mg/kg)
The response must be a number in mg/kg with no trailing unit.

QUERY: Give the measured MTD of CC1=C(CO)C2=C(C)C3(CC3)[C@@](C)(O)C(=O)C2=C1 [6-hydroxymethylacylfulvene] .
RESULT: 7.5

---

Please go through the items and note down their pIC50.
# System: HL-60 parent cells
# run_description: sensitivity of mdr lines, HL-60 parent
# Type: cell-based
# study_conditions: Homo sapiens
// pIC50 is dimensionless: -log10 of concentration (M)

QUERY: Give the measured pIC50 of CC1=C2C(=C[C@@](C)(CO)C2O)C(=O)[C@](C)(O)C12CC2 (some centres unmarked) .
RESULT: 8.51

QUERY: Try this molecule too: CC1=C2C(=O)C(C)(C)C=C2C(=O)[C@](C)(O)C12CC2 [Dehydroilludin M]
RESULT: 6.79

---

# Test system: human lung adenocarcinoma MV522
# study_conditions: in vivo
measurement_type: efficacy in this model

CC1=C(Br)C2=C(C)C3(CC3)[C@@](C)(O)C(=O)C2=C1 [6-bromoacylfulvene, 6-Bromoacylfulvene]    effective in this model
CC1=C(Cc2ccc(O)cc2)C2=C(C)C3(CC3)[C@@](C)(O)C(=O)C2=C1 [6-(p-hydroxybenzyl)acylfulvene, 6-(p-Hydroxybenzyl)acylfulvene]    effective in this model
